The reported measurements were obtained from patent US20120329731A1.

Parameter: Screen Righting time (Ave ± SE). Scope: all listed entries.
test system: righting reflex; conditions: mouse, in vivo, ip
measurement-name: Screen Righting time (Ave ± SE) (s)

INSERT INTO measurements (compound, tested_system, measurement_name, units_symbol, quantitative_readout) VALUES
  ('CCOC(=O)C1(O)CSC(O)(C(=O)OCC)CS1 (stereo not shown)', 'righting reflex', 'Screen Righting time (Ave ± SE)', 's', 21.2),
  ('O.O.O.O.O=C(O)C1(O)CSC(O)(C(=O)O)CS1.[Na].[Na] (stereo not shown)', 'righting reflex', 'Screen Righting time (Ave ± SE)', 's', 14.0),
  ('C/C1=C2/[N-][C@H]([C@H](CC(N)=O)[C@@]2(C)CCC(=O)NC[C@@H](C)OP(=O)([O-])O[C@H]2[C@@H](O)[C@@H](n3cnc4cc(C)c(C)cc43)O[C@@H]2CO)[C@]2(C)N=C(/C(C)=C3N=C(/C=C4N=C1[C@@H](CCC(N)=O)C\4(C)C)[C@@H](CCC(N)=O)[C@]\3(C)CC(N)=O)[C@@H](CCC(N)=O)[C@]2(C)CC(N)=O.[Co+3].[OH-] [H, Hydroxocobalamin, reference compound]', 'righting reflex', 'Screen Righting time (Ave ± SE)', 's', 7.1),
  ('N[C@@H](CCC(=O)N[C@@H](CSSC[C@H](N)C(=O)O)C(=O)NCC(=O)O)C(=O)O [CySSG, reference compound]', 'righting reflex', 'Screen Righting time (Ave ± SE)', 's', 8.8);
